Taken from ChEMBL document CHEMBL1212831.

Assay: Equilibrium solubility of the compound in fasted simulated intestinal fluid at pH 2 to 10
Type: physicochemical

Sample smiles	solubility thermodynamic
CC(C)S(=O)(=O)N[C@H]1Cc2ccc(-c3ccc(F)nc3)cc2C1	100 µg/mL

* * *

Molecular target: Glutamate receptor 2 (Homo sapiens, UniProt P42262)
Sequence (P42262 whole entry): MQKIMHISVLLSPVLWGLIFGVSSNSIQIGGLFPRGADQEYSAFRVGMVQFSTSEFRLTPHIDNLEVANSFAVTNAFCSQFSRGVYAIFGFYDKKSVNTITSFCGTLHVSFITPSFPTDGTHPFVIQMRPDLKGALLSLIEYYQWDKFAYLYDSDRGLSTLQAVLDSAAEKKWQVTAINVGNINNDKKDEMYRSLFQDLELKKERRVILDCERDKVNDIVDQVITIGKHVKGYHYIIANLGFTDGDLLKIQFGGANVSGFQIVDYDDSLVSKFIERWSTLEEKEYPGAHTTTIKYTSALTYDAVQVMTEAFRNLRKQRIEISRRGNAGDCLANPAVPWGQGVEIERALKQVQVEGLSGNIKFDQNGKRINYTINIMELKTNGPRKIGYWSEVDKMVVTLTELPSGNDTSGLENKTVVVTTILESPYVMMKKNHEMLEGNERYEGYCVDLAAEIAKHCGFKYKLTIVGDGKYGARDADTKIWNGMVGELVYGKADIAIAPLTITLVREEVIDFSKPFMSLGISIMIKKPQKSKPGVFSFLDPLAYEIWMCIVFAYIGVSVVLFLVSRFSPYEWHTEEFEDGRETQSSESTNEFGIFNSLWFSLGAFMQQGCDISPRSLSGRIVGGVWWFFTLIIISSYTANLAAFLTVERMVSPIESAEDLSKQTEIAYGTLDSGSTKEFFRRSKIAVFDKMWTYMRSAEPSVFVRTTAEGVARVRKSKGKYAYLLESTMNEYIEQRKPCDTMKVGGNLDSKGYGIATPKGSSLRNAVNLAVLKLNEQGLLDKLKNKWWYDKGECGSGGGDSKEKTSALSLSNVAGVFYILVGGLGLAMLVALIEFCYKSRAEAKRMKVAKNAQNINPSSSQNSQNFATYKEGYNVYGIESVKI
pEC50: −log10 of the molar value.
Answer f if pEC50 is under 5, and t if it is 5 or more.

Compound	Discrete label
Cc1ccncc1-c1ccc2c(c1)CC(NS(=O)(=O)C(C)C)C2 (stereo not drawn)	f
Cc1ccc(-c2ccc3c(c2)CC(NS(=O)(=O)C(C)C)C3)nc1 (stereo not drawn)	t
CC(=O)Nc1cccc(-c2ccc3c(c2)CC(NS(=O)(=O)C(C)C)C3)c1 (stereo not drawn)	f
Cc1ccc(-c2ccc3c(c2)CC(NS(=O)(=O)C(C)C)C3)cn1 (stereo not drawn)	t
CC(C)S(=O)(=O)NC[C@H](C)c1ccc(NC(=O)c2cc(F)cc(F)c2)cc1	t
CC(C)S(=O)(=O)NC1Cc2ccc(-c3cccc(NS(C)(=O)=O)c3)cc2C1 (stereo not drawn)	t
CC(C)S(=O)(=O)NC1Cc2ccc(-c3cccc(N(C)S(C)(=O)=O)c3)cc2C1 (stereo not drawn)	t
CC(C)S(=O)(=O)NC1Cc2ccc(-c3cncc(C#N)c3)cc2C1 (stereo not drawn)	f
CC(C)S(=O)(=O)NC1Cc2ccc(-c3cccc(CN4CCCS4(=O)=O)c3)cc2C1 (stereo not drawn)	t
CC(C)C(=O)Nc1cccc(-c2ccc3c(c2)CC(NS(=O)(=O)C(C)C)C3)c1 (stereo not drawn)	f
CC(C)S(=O)(=O)NC1Cc2ccc(-c3cccnc3F)cc2C1 (stereo not drawn)	f
Cc1cccnc1-c1ccc2c(c1)CC(NS(=O)(=O)C(C)C)C2 (stereo not drawn)	f
CC(=O)Cc1cccc(-c2ccc3c(c2)CC(NS(=O)(=O)C(C)C)C3)c1 (stereo not drawn)	t
CC(C)S(=O)(=O)NC1Cc2ccc(-c3cccc(C#N)c3)cc2C1 (stereo not drawn)	f
Cc1ccc(-c2ccc3c(c2)C[C@@H](NS(=O)(=O)C(C)C)C3)cn1	t
CCS(=O)(=O)Nc1cccc(-c2ccc3c(c2)CC(NS(=O)(=O)C(C)C)C3)c1 (stereo not drawn)	t
CC(C)S(=O)(=O)N[C@H]1Cc2ccc(-c3ccc(F)cn3)cc2C1	t
CC(=O)c1cccc(-c2ccc3c(c2)CC(NS(=O)(=O)C(C)C)C3)c1 (stereo not drawn)	f
CC(C)S(=O)(=O)NC1Cc2ccc(-c3ccc(F)cn3)cc2C1 (stereo not drawn)	t
CC(C)S(=O)(=O)NC1Cc2ccc(-c3cccnc3)cc2C1 (stereo not drawn)	f
